study.system: MC3-R (Homo sapiens)
assay.method.text: Competitive inhibition assay using [I^125]-NDP-α-MSH, hMC3-R membranes
Format: binding
Design: expressed in transfected cells
measurement.context: 1 μM test compound; read-out: Inhibition at 1 μM (NDP-α-MSH) In Normal System, MC3-R
quantity: inhibition at 1 µM (%)

1) CC(=O)N[C@H](Cc1ccc2ccccc2c1)C(=O)N1C[C@@H](CC(C)C)N(CCc2ccc3ccccc3c2)C[C@@H]1CCCNC(=N)N [Example 12] :: 40
2) C[C@@H]1CN(C(=O)[C@H](N)Cc2ccc3ccccc3c2)[C@@H](CCCNC(=N)N)CN1C(=O)Cc1c[nH]c2ccccc12 [Example 6] :: 35
3) CCNC(=O)[C@@H]1CCCCNC(=O)C[C@H](NC(C)=O)C(=O)N[C@@H](Cc2c[nH]cn2)C(=O)N[C@H](Cc2ccccc2)C(=O)N[C@@H](CCCNC(=N)N)C(=O)N[C@@H](Cc2c[nH]c3ccccc23)C(=O)N1 [Example 40] :: 65
4) Cc1ccc(CCN2C[C@H](CCCNC(=N)N)N(C(=O)[C@H](N)Cc3ccc4ccccc4c3)C[C@H]2C)cc1 [Example 5] :: 61
5) CCCC[C@H](NC(C)=O)C(=O)N[C@H]1CC(=O)NCCCC[C@@H](C(=O)NCC)NC(=O)[C@H](Cc2cccc3ccccc23)NC(=O)[C@H](CCCNC(=N)N)NC(=O)[C@@H](Cc2ccccc2)NC(=O)[C@H](Cc2c[nH]cn2)NC1=O [Example 39] :: 93

###

study.system: UniProt P32245
assay.method.text: cAMP agonist stimulation, low receptor density system (0.1 ng/mL doxycycline)
measurement.context: 0.1 ng/mL doxycycline, low receptor density hMC4-R system; NDP-α-MSH maximal cAMP = 1.0
Non-standard residues stand in square brackets, D forms with d. Residues, ends and D or L forms follow the SMILES beside them. *: point of attachment. dPhe(4-Cl) = N[C@H](Cc1ccc(Cl)cc1)C(=O)O; Ahp = NCCCCCCC(=O)O; Bn = c1ccc(C*)cc1
quantity: Efficacy/Intrinsic Activity

1. N=C(N)NCCC[C@H](NC(=O)[C@@H](Cc1ccc(Cl)cc1)NC(=O)[C@H](COCc1ccccc1)NC(=O)CCCCCCN)C(=O)N[C@@H](Cc1c[nH]c2ccccc12)C(N)=O [Example 1] (H-[Ahp]S(Bn)[dPhe(4-Cl)]RW-NH2) :: None
2. Cc1cc(Cl)ccc1C[C@@H](N)C(=O)N1C[C@@H](C)N(CCc2c[nH]c3ccccc23)C[C@@H]1CCCNC(=N)N :: None
3. Cc1[nH]c2ccccc2c1CCN1C[C@H](CCCNC(=N)N)N(C(=O)[C@H](N)Cc2ccc3ccccc3c2)C[C@H]1C :: None

###

# Lookup of reported EC50 keyed by entry
study.system: MC4-R (Homo sapiens)
Sequence (P32245 whole entry): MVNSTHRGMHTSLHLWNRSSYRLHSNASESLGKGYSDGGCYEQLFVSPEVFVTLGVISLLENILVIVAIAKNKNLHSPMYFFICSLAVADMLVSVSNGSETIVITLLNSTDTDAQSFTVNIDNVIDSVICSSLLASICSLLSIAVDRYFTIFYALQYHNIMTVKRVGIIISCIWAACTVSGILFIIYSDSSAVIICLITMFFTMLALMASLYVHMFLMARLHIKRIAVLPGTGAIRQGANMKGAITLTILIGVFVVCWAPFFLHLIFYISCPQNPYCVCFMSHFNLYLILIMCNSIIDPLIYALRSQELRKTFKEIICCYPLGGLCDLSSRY
assay.method.text: cAMP agonist stimulation, high receptor density system (10 ng/mL doxycycline)
Positions of bridges follow the written chain, without caps; N, C: chain ends. Non-standard residues stand in square brackets, D forms with d. Residues, ends and D or L forms follow the SMILES beside them. *: point of attachment. dPhe(4-Cl) = N[C@H](Cc1ccc(Cl)cc1)C(=O)O; 1Nal = N[C@@H](Cc1cccc2ccccc12)C(=O)O; Heptanoyl = CCCCCCC(=O)*; Nle = CCCC[C@H](N)C(=O)O; Ahp = NCCCCCCC(=O)O; Bn = c1ccc(C*)cc1
quantity: EC50 (nM)

1) N=C(N)NCCC[C@H]1C(=O)N2C(CC[C@@H]2COc2ccc3ccccc3c2)N1C(=O)[C@@H](Cc1ccc(Cl)cc1Cl)NC(=O)[C@@H]1Cc2ccccc2CN1 (stereo partly drawn) [Example 22] :: 64
2) C[C@@H]1CN(C(=O)[C@H](N)Cc2ccc(Cl)cc2Cl)[C@@H](CCCNC(=N)N)CN1CCc1ccc2ccccc2c1 [Example 11] :: 61
3) C[C@@H]1CN(C(=O)[C@H](N)Cc2ccc3ccccc3c2)[C@@H](CCCNC(=N)N)CN1C(=O)Cc1ccc2ccccc2c1 [Example 33] :: 50
4) CCCC[C@H](NC(C)=O)C(=O)N[C@H]1CC(=O)NCCCC[C@@H](C(=O)NCC)NC(=O)[C@H](Cc2cccc3ccccc23)NC(=O)[C@H](CCCNC(=N)N)NC(=O)[C@@H](Cc2ccccc2)NC(=O)[C@H](Cc2c[nH]c3ccccc23)NC1=O [Example 38] (Ac-[Nle]DW[dF]R[1Nal]K-NHEt; lactam 2-7) :: 10
5) CC(=O)N[C@H](Cc1ccc(Cl)cc1C)C(=O)N1C[C@@H](C)N(C(=O)Cc2ccc3ccccc3c2)C[C@@H]1CCCNC(=N)N [Example 31] :: 39
6) CCNC(=O)[C@@H]1CCCCNC(=O)C[C@H](NC(C)=O)C(=O)N[C@@H](Cc2c[nH]cn2)C(=O)N[C@H](Cc2ccccc2)C(=O)N[C@@H](CCCNC(=N)N)C(=O)N[C@@H](Cc2c[nH]c3ccccc23)C(=O)N1 [Example 40] :: 0.5
7) N=C(N)NCCC[C@H]1C(=O)N2C(CC[C@@H]2COc2ccc3ccccc3c2)N1C(=O)[C@@H](Cc1ccc(Cl)cc1Cl)NC(=O)[C@@H]1CC[C@H](c2ccccc2)N1 (stereo partly drawn) [Example 19] :: 173
8) C[C@@H]1CN(C(=O)[C@H](N)Cc2ccc3ccccc3c2)[C@@H](CCCNC(=N)N)CN1C(=O)CCCc1c[nH]c2ccccc12 [Example 7] :: 72
9) CCCCCCC(=O)N[C@H](C(=O)N[C@H](Cc1ccc(Cl)cc1)C(=O)N[C@@H](CCCNC(=N)N)C(=O)N[C@@H](Cc1c[nH]c2ccccc12)C(N)=O)[C@@H](C)OCc1ccccc1 [Example 23] (Heptanoyl-T(Bn)[dPhe(4-Cl)]RW-NH2) :: 184
10) CCCC[C@H](NC(C)=O)C(=O)N[C@H]1CC(=O)NCCCC[C@@H](C(=O)N(C)C)NC(=O)[C@H](Cc2cccc3ccccc23)NC(=O)[C@H](CCCNC(=N)N)NC(=O)[C@@H](Cc2ccccc2)NC(=O)[C@H](Cc2c[nH]cn2)NC1=O [Example 37] :: 0.6
11) N=C(N)NCCC[C@H](NC(=O)[C@@H](Cc1ccc(Cl)cc1)NC(=O)[C@H](COCc1ccccc1)NC(=O)CCCCCCN)C(=O)N[C@@H](Cc1c[nH]c2ccccc12)C(=O)N[C@@H](CC(=O)O)C(N)=O [Example 13] (H-[Ahp]S(Bn)[dPhe(4-Cl)]RWD-NH2) :: 34
12) N=C(N)NCCC[C@H]1CN(CCc2ccc3ccccc3c2)CCN1C(=O)[C@H](N)Cc1ccc(Cl)cc1Cl [Example 17] :: 847

###

study.system: MC3-R (Homo sapiens, UniProt P41968)
Sequence (P41968 whole entry): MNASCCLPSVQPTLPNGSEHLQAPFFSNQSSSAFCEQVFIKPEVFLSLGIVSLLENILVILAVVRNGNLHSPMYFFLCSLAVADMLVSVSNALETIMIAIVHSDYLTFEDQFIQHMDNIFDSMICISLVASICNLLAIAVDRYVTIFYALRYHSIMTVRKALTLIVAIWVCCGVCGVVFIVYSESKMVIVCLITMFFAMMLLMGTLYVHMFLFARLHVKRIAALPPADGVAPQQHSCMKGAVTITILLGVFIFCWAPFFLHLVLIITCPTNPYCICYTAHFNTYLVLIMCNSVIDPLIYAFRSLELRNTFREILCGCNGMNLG
assay.method.text: Competitive inhibition assay using [I^125]-NDP-α-MSH, hMC3-R membranes
Assay type: binding
Design: expressed in transfected cells
measurement.context: 1 μM test compound; read-out: Inhibition at 1 μM (NDP-α-MSH) In Normal System, MC3-R
# Lookup of reported inhibition at 1 µM keyed by entry
quantity: inhibition at 1 µM

1) Cc1cc(Cl)ccc1C[C@@H](N)C(=O)N1C[C@@H](C)N(CCc2c[nH]c3ccccc23)C[C@@H]1CCCNC(=N)N :: 74%
2) N=C(N)NCCC[C@H]1C(=O)N(CCc2c[nH]c3ccccc23)CCN1C(=O)[C@H](N)Cc1ccc(Cl)cc1Cl :: 57%
3) CC(=O)N[C@H](Cc1ccc2ccccc2c1)C(=O)N1C[C@@H](C)N(C(=O)Cc2ccc3ccccc3c2)C[C@@H]1CCCNC(=N)N :: 38%

###

study.system: MC3-R (Homo sapiens)
assay.method.text: Competitive inhibition assay using [I^125]-NDP-α-MSH, hMC3-R membranes
Type: binding
Set-up: expressed in transfected cells
measurement.context: 1 μM test compound; read-out: Inhibition at 1 μM (NDP-α-MSH) In Normal System, MC3-R
Positions of bridges follow the written chain, without caps; N, C: chain ends. Non-standard residues stand in square brackets, D forms with d. Residues, ends and D or L forms follow the SMILES beside them. 1Nal = N[C@@H](Cc1cccc2ccccc12)C(=O)O; 2Nal = N[C@@H](Cc1ccc2ccccc2c1)C(=O)O; d2Nal = N[C@H](Cc1ccc2ccccc2c1)C(=O)O; Nle = CCCC[C@H](N)C(=O)O
Label scheme for inhibition at 1 µM: lower than 70% is Not satisfied, 70% and above is Satisfied.

1) N=C(N)NCCC[C@H]1C(=O)N2C(CC[C@@H]2COc2ccc3ccccc3c2)N1C(=O)[C@@H](Cc1ccc(Cl)cc1Cl)NC(=O)[C@@H]1CC[C@H](c2ccccc2)N1 (stereo partly shown) [Example 19] :: Not satisfied
2) CCCC[C@H](NC(C)=O)C(=O)N[C@H]1CC(=O)NCCCC[C@@H](C(=O)N(C)C)NC(=O)[C@H](Cc2cccc3ccccc23)NC(=O)[C@H](CCCNC(=N)N)NC(=O)[C@@H](Cc2ccccc2)NC(=O)[C@H](Cc2c[nH]c3ccccc23)NC1=O [Example 36] (Ac-[Nle]DW[dF]R[1Nal]K-NMe2; lactam 2-7) :: Satisfied
3) Cc1ccc(C[C@@H](N)C(=O)N2C[C@@H](C)N(CCc3ccc4ccccc4c3)C[C@@H]2CCCNC(=N)N)c(C)c1 [Example 27] :: Not satisfied
4) NCCCC[C@H]1C(=O)N(CCc2ccc3ccccc3c2)CCN1C(=O)[C@@H](Cc1ccc(Cl)cc1Cl)NC(=O)c1ccc(Oc2ccccc2)cc1 [Example 21] :: Not satisfied
5) N=C(N)NCCC[C@H]1CN(CCc2ccc3ccccc3c2)CCN1C(=O)[C@H](N)Cc1ccc(Cl)cc1Cl [Example 17] :: Satisfied
6) NCCCC[C@H]1C(=O)N(CCc2ccc3ccccc3c2)CCN1C(=O)[C@@H](Cc1ccc(Cl)cc1Cl)NC(=O)[C@@H]1CC[C@H](c2ccccc2)N1 [Example 18] :: Not satisfied
7) CCCC[C@H](NC(C)=O)C(=O)N[C@H]1CC(=O)NCCCC[C@@H](C(=O)N(C)C)NC(=O)[C@H](Cc2cccc3ccccc23)NC(=O)[C@H](CCCNC(=N)N)NC(=O)[C@@H](Cc2ccccc2)NC(=O)[C@H](Cc2c[nH]cn2)NC1=O [Example 37] :: Satisfied
8) CCCC[C@H](NC(C)=O)C(=O)N[C@H]1CC(=O)NCCCC[C@@H](C(=O)O)NC(=O)[C@H](Cc2ccc3ccccc3c2)NC(=O)[C@H](CCCNC(=N)N)NC(=O)[C@@H](Cc2ccc3ccccc3c2)NC(=O)[C@H](Cc2c[nH]cn2)NC1=O [Example 34] (Ac-[Nle]DH[d2Nal]R[2Nal]K-OH; lactam 2-7) :: Satisfied
9) C[C@@H]1CN(C(=O)[C@H](N)Cc2ccc3ccccc3c2)[C@@H](CCCNC(=N)N)CN1C(=O)Cc1ccc2ccccc2c1 [Example 33] :: Not satisfied
